measurement.target: Runt-related transcription factor 1 (Homo sapiens) + Core-binding factor subunit beta (Homo sapiens) (UniProt Q01196+Q13951)
Sequence (Q01196 whole entry, looked up): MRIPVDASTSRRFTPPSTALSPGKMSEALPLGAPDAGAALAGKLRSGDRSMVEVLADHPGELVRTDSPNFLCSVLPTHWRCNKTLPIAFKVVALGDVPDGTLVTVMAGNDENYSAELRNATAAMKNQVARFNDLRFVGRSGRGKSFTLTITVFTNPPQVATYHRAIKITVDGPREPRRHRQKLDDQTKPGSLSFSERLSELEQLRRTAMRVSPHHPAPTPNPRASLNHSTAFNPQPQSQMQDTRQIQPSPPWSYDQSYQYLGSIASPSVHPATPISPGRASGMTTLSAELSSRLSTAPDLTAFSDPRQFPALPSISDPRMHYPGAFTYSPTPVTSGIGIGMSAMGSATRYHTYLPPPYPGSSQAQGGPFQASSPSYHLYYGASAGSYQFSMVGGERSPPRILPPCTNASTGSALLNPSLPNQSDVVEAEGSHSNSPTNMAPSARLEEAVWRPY
Sequence (Q13951 whole entry, looked up): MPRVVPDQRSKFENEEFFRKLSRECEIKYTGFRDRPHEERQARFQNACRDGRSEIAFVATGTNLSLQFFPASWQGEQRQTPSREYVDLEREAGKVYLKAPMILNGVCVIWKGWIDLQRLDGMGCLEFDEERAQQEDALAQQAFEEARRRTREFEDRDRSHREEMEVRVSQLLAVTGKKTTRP
test.details: qHTS Assay for Compounds Blocking the Interaction Between CBF-beta and RUNX1 for the Treatment of Acute Myeloid Leukemia: Hit Validation; note: nearly all actives have a fitted effect of over 60% in size
measurement.conditions: AlphaScreen CBFb-His/RUNX1-biotin binding; series mostly up to 59.8 µM
The whole screen tested about 1,500 compounds, of which about 100 (6.7%) were called active. Inconclusive results (about 7%) are left out. Calls come from the whole dose curve; as a rule, active = well fitted inhibition curve with a large enough effect; inconclusive = small, poorly fitted or top-dose-only effect, or effect the other way; inactive = flat fitted curve, though single readings scatter. The sample holds actives, similar compounds and a random draw of the others, so the mix is not that of the screen.
Select the matching outcome among true (1) for active, false (0) for inactive

Known results for compounds:
Task: # outcome recorded in this test, key = Cn1nc(-c2ccccc2)cc1NC(=O)CCCC(=O)O
Output: false (0)

Task: # outcome recorded in this test, key = O=C(c1ccc(Cn2cc(Cl)c([N+](=O)[O-])n2)cc1)N1CCN(Cc2ccccc2)CC1
Output: false (0)

Task: # outcome recorded in this test, key = Cc1ccc2nc(-c3ccc(N)cc3)sc2c1
Output: false (0)

Task: # outcome recorded in this test, key = COc1cccc(/C=N/NC(=O)C(C)Cn2cnc3ccccc32)c1 (centres undefined)
Output: false (0)

Task: # outcome recorded in this test, key = C/C(=N\Nc1ccc(C#N)cc1[N+](=O)[O-])c1ccc(O)cc1
Output: false (0)

Task: # outcome recorded in this test, key = CCCC(=O)c1cc(O)c(O)cc1O
Output: true (1)

Task: # outcome recorded in this test, key = COC(=O)c1cccnc1Oc1ccccc1
Output: false (0)

Task: # outcome recorded in this test, key = CC(=O)c1cc(O)c2ccccc2c1O
Output: false (0)

Task: # outcome recorded in this test, key = Cc1cc(NC(=O)CN2CCCCC2)n(-c2ccccc2)n1
Output: false (0)

Task: # outcome recorded in this test, key = CC1(C)C(CC2OCC(CN3CCCCC3)O2)[C@H]2CC[C@@H]1C2 (some centres undefined)
Output: false (0)

Others:
Task: # outcome recorded in this test, key = COC(=O)c1ccc(S(=O)(=O)N(C2CCCCC2)C2CCCCC2)n1C
Output: false (0)

Task: # outcome recorded in this test, key = Oc1ccc2ccccc2c1C=Nc1ccccc1
Output: false (0)

Task: # outcome recorded in this test, key = Cc1ccc(C)c(C(=O)CCC(=O)O)c1
Output: false (0)

Task: # outcome recorded in this test, key = O=C(Nc1ccc(Cl)cc1)Nc1ccc(C(=O)N2CCOCC2)cc1
Output: false (0)

Task: # outcome recorded in this test, key = COc1cccc(C2/C(=C(/O)c3ccccc3)C(=O)C(=O)N2Cc2ccco2)c1 (centres undefined)
Output: false (0)

----------
measurement.target: Runt-related transcription factor 1 (Homo sapiens) + Core-binding factor subunit beta (Homo sapiens) (UniProt Q01196+Q13951)
test.details: qHTS Assay for Compounds Blocking the Interaction Between CBF-beta and RUNX1 for the Treatment of Acute Myeloid Leukemia: Hit Validation; note: nearly all actives have a fitted effect of over 60% in size
measurement.conditions: AlphaScreen CBFb-His/RUNX1-biotin binding; series mostly up to 59.8 µM
About 100 (6.7%) of roughly 1,500 compounds were called active. Roughly 7% stayed inconclusive and do not appear here. Calls come from the whole dose curve; as a rule, active = well fitted inhibition curve with a large enough effect; inconclusive = small, poorly fitted or top-dose-only effect, or effect the other way; inactive = flat fitted curve, though single readings scatter. This is one part of a sample in which actives are shown more often than they occur.
Select the matching outcome among active, inactive

Known results for compounds:
Task: # outcome recorded in this test, key = O=C1CSC(=S)N1/N=C/c1ccc(O)c(O)c1O
Output: active

Task: # outcome recorded in this test, key = Cc1ccccc1NC(=S)N(CCN(C)C)C(C)c1ccccn1 (centres undefined)
Output: active

Task: # outcome recorded in this test, key = CCc1ccccc1NC(=S)N(CCN(C)C)C(C)c1ccccn1 (centres undefined)
Output: active

Turning now to a further compound:
Task: # outcome recorded in this test, key = Cc1cc(NC(=O)Nc2cc(Cl)ccc2C)no1
Output: inactive

Every entry's value here was drawn from PubChem BioAssay AID504374.
